- Measured Target: TSLP (as used in the human PBMC assay) (UniProt Q969D9 29-159)
- Assay Explanation: cell-based or functional assay
*1 amine or outer side, *2 acyl side, *3 side chain or, on linkers, in order; H or OH if unused. Bridges are numbered along the chain shown (N, C = ends). Where no end group is shown, it is not given here. TATA = O=C(CC[*:1])N1CN(C(=O)CC[*:2])CN(C(=O)CC[*:3])C1
Endpoint Label: CCL17 % Inhibition @ 10 µM, 666 pM TSLP (%)

[[record]]
binder = "ACRDLDPWTCSSWWLCA (linker 2-10-16 via TATA; not fully specified (C-terminus)) [Example 164]"
numeric_result = 0

[[record]]
binder = "CQWLEDCWRGXC (not fully specified; Ac-CQWLEDCWRG[Nal1]C; 3 Cys cyclised with TATA) [Example 47]"
numeric_result = -7


a = AHPCADLDPWTCPNWWLCA (linker 4-12-18 via TATA; not fully specified (C-terminus)) [Example 165]
b = SHVCRDLDPWTCDSWWLCA (linker 4-12-18 via TATA) [Example 188]
Req: Hey, which is lower on measured CCL17 % Inhibition @ 10 µM, 666 pM TSLP, a or b ? Your answer should be the label attached to the chosen record.
Resp: b

P = ACQWLEDCWRGFCA (linker 2-8-13 via TATA) [Example 68]
Q = GTDSAECQWLEDCWRGFCA (linker 7-13-18 via TATA) [Example 45]
Req: Hey, which is lower on measured CCL17 % Inhibition @ 10 µM, 666 pM TSLP, P or Q ? Your answer should be the label attached to the chosen record.
Resp: Q
